- ASSAY SYSTEM: Spike protein of SARS-CoV-2 strain BA.2.86 (hCoV-19/France/IDF-IPP17625/2023) (SARS-CoV-2)
- TEST PROTOCOL: cell-based or functional assay
MEASURED PARAMETER: IC50, S-Fuse neutralization of live virus (µg/mL)
Answers are plain numbers, in µg/mL.

SPK002M A6 antibody (antibody, human IgG1, kappa, V domains shown) VH: EVQLVESGGGLIQPGGSLRLSCAASGITVTSNYMSWVRQAPGKGLEWVSVIYPGGSTFYADSVKGRFTISADNSKNTLYLQMNSLRAEDTAVYYCARDLVVYGMDVWGQGTTVTVSS VL: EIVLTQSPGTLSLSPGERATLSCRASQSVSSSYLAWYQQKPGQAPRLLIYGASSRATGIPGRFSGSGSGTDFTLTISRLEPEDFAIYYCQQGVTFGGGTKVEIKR :: 0.63

Next:
Q: If you can, please state the reported IC50, S-Fuse neutralization of live virus value of SPK002M A1 antibody (antibody, human IgG1, kappa, V domains shown) VH: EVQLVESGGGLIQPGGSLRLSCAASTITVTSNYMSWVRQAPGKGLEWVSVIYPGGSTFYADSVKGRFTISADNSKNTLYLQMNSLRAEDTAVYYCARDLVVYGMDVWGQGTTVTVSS VL: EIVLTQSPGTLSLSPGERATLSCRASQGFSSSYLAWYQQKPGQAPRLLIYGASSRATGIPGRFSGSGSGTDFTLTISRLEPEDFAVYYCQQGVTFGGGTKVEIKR .
A: 0.02
